System: E. faecalis MGH-2
Experiment: Antibacterial assay (Test A), standard microtitration, MIC
Assay type: cell-based
Details: Enterococcus faecalis, MGH2; Gram Positive Bacteria; strain MGH-2; read-out: Minimum Inhibitory Concentrations E. faecalis MGH-2
Measured MIC accompanies every entry in the list below.
Write the number in µg/mL without appending the unit.

Check out these entries, answers already filled in.
- molecule: "Nc1nc(-n2c(=O)n(N)c(=O)c3cc(F)c(N4CC(O)C4)c(Cl)c32)c(F)cc1F [drawing 123]"
  experimental-result: 16
- molecule: "Nn1c(=O)c2cc(F)c(N3CC(O)(C4CC4)C3)c(Cl)c2n(C2CC2)c1=O [drawing 126]"
  experimental-result: 0.5
- molecule: "Cc1c(N2CC(O)C2)c(F)cc2c(=O)n(N)c(=O)n(C3CC3)c12 [drawing 124]"
  experimental-result: 32
- molecule: "Cc1c(N2CC(CCO)C2)c(F)cc2c(=O)n(N)c(=O)n(C3CC3)c12 [drawing 125]"
  experimental-result: 16
- molecule: "CC(C)C1(O)CN(c2c(F)cc3c(=O)n(N)c(=O)n(C4CC4)c3c2Cl)C1 [drawing 128]"
  experimental-result: 32

// next entry
Report MIC for Nn1c(=O)c2cc(F)c(N3CC(O)(c4ccc(F)cc4)C3)c(Cl)c2n(C2CC2)c1=O [drawing 127] please.
16
